molecular target: full-length SARM1 (FL-SARM1) (Homo sapiens, UniProt Q6SZW1); assay: FL-SARM1 cellular lysate assay (NAD/NADH-Glo readout of remaining NAD+); settings: Activity, SARM1 cellular lysate from transfected HEK293T cells, NAD+ and NMN, 11 point curve
pIC50: −log10 of the molar value.
EXPERIMENTAL ENDPOINT: pIC50

Task item: State its pIC50: Cc1ccc(NC(=O)N2C3CC(=O)CC2C3)cc1-c1cncc(F)c1 [Example 38]
Reply: 5.00 to 6.00

Task item: State its pIC50: CO[C@H]1CC2C[C@H](C1)N2C(=O)Nc1cc(-c2cncc(F)c2)c(C)cc1F [Example 3]
Reply: 5.00 to 6.00

Task item: State its pIC50: Cc1ccc(NC(=O)N2C3CC2CC(C)(O)C3)cc1-c1cncc(F)c1 (single isomer, unassigned) [Example 46]
Reply: 5.00 to 6.00

Task item: State its pIC50: Cc1nnc(C23CCCC(C2)N3C(=O)Nc2ccc(C)c(-c3cncc(F)c3)c2)o1 (stereo not drawn) [Example 98]
Reply: 6.00 to 10.00

Task item: State its pIC50: Cc1ccc(NC(=O)N2C3C[C@H](C#N)C[C@@H]2C3)cc1-c1cncc(F)c1 [Example 49]
Reply: 6.00 to 10.00

Task item: State its pIC50: Cc1ccc(NC(=O)N2C3CC[C@@H](C(=O)N(C)C)[C@@H]2C3)cc1-c1cncc(F)c1 [Example 34]
Reply: < 5.00

Task item: State its pIC50: Cc1ccc(NC(=O)N2C[C@@H]3C[C@H]2C[C@@H]3C#N)cc1-c1cncc(F)c1 (relative stereo) [Example 24]
Reply: 5.00 to 6.00

Task item: State its pIC50: Cc1nnc([C@]23C[C@H](C)C[C@H](C2)N3C(=O)Nc2ccc(C)c(-c3cncc(F)c3)c2)o1 (single isomer, unassigned) [Example 127]
Reply: 6.00 to 10.00

Task item: State its pIC50: Cc1ccc(NC(=O)N2C3C[C@@H]2C[C@H](n2cccn2)C3)cc1-c1cncc(F)c1 [Example 27]
Reply: < 5.00

Task item: State its pIC50: Cc1ccc(NC(=O)N2C3CCC2CC3)cc1-c1cncc(F)c1 [Example 97]
Reply: 6.00 to 10.00

Task item: State its pIC50: COC[C@H]1CC[C@H]2CC1N2C(=O)Nc1ccc(C)c(-c2cncc(F)c2)c1 [Example 15]
Reply: 5.00 to 6.00

Task item: State its pIC50: COc1cncc(-c2cc(NC(=O)N3C4CCCC3C4)ccc2C)c1 [Example 71]
Reply: 6.00 to 10.00

Task item: State its pIC50: Cc1ccc(NC(=O)CC2CCC2)cc1-c1cccnc1 [Example 114]
Reply: 5.00 to 6.00

Task item: State its pIC50: Cc1cncc(-c2cc(NC(=O)N3C4CCCC3C4)ccc2C)c1 [Example 115]
Reply: 6.00 to 10.00

Task item: State its pIC50: Cc1ccc(NC(=O)N2C[C@@H]3CC2C[C@H]3C#N)cc1-c1cncc(F)c1 [Example 16]
Reply: < 5.00

Task item: State its pIC50: Cc1ccc(NC(=O)[C@@H]2CC2(F)F)cc1-c1cccnc1C [Example 112]
Reply: < 5.00

Task item: State its pIC50: Cc1ccc(NC(=O)N2C[C@H]3C[C@@H]2CN3c2ncccn2)cc1-c1cncc(F)c1 [Example 19]
Reply: < 5.00

Task item: State its pIC50: Cc1ccc(NC(=O)N2C3CCCC2(C(=O)N2CCCC2)C3)cc1-c1cncc(F)c1 (stereo not drawn) [Example 93]
Reply: 5.00 to 6.00

Task item: State its pIC50: Cc1ccc(NC(=O)C2CCCN2c2ncccn2)cc1-c1cncc(F)c1 (racemic) [Example 104]
Reply: < 5.00

Task item: State its pIC50: Cc1ccc(NC(=O)N2C3C[C@H](CF)C[C@@H]2C3)cc1-c1cncc(F)c1 [Example 1]
Reply: 6.00 to 10.00

Task item: State its pIC50: Cc1ccc(NC(=O)N2CC3CCC2C3)cc1-c1cncc(F)c1 (stereo not drawn) [Example 18]
Reply: 5.00 to 6.00

Task item: State its pIC50: Cc1ccc(NC(=O)N2C3CCCC2C3)cc1-c1cncc(OC(F)(F)F)c1 [Example 35]
Reply: 6.00 to 10.00

Task item: State its pIC50: Cc1ccc(NC(=O)N2C3C[C@H]2C[C@H](n2cccn2)C3)cc1-c1cncc(F)c1 [Example 6]
Reply: 5.00 to 6.00

Task item: State its pIC50: Cc1ccc(NC(=O)N2CCOc3cccc(C#N)c3C2)cc1-c1cncc(F)c1 [Example 81]
Reply: 5.00 to 6.00

Task item: State its pIC50: Cc1ccc(NC(=O)N2C3CCCC2C3)cc1-c1ccnnc1 [Example 63]
Reply: < 5.00

Task item: State its pIC50: COc1ncccc1-c1cc(NC(=O)N2C3CCCC2C3)ccc1C [Example 68]
Reply: 5.00 to 6.00

Task item: State its pIC50: Cc1nnc([C@@]23C[C@@H](C)C[C@@H](C2)N3C(=O)Nc2ccc(Cl)c(-c3cncc(F)c3)c2)o1 (single isomer, unassigned) [Example 134]
Reply: 6.00 to 10.00

Task item: State its pIC50: Cc1ccc(NC(=O)N2C3C[C@H](OC(F)F)C[C@@H]2C3)cc1-c1cncc(F)c1 [Example 29]
Reply: 6.00 to 10.00

Task item: State its pIC50: Cc1ccc(NC(=O)N2C3CCCC2C3)cc1-c1cncc(C#N)c1 [Example 72]
Reply: 6.00 to 10.00

Task item: State its pIC50: Cc1ccc(NC(=O)N2CC[C@@H](C)C[C@H]2C)cc1-c1cncc(F)c1 (racemic) [Example 119]
Reply: 5.00 to 6.00

Task item: State its pIC50: C[C@@H]1CC2C[C@H](C1)N2C(=O)Nc1ccc(F)c(-c2cncc(F)c2)c1 (single isomer, unassigned) [Example 58]
Reply: 6.00 to 10.00

Task item: State its pIC50: Cc1ccc(NC(=O)N2CCCCC2C)cc1-c1cncc(F)c1 (racemic) [Example 32]
Reply: 5.00 to 6.00

Task item: State its pIC50: Cc1ccc(NC(=O)N2C3CCCC2C3)cc1-c1cccnc1C [Example 69]
Reply: 5.00 to 6.00

* * *

target: full-length SARM1 (FL-SARM1) (Homo sapiens, UniProt Q6SZW1); experiment: FL-SARM1 cellular lysate assay (NAD/NADH-Glo readout of remaining NAD+); details: Activity (μM), SARM1 cellular lysate from transfected HEK293T cells, NAD+ and NMN, 11 point curve
Exercise: state measured IC50 for each of the compounds provided.
Write the number in µM without appending the unit.

Task item: State its IC50: Cc1nnc([C@]23C[C@H](C)C[C@H](C2)N3C(=O)Nc2ccc(C(F)(F)F)c(-c3cncc(F)c3)c2)o1 (single isomer, unassigned) [Example 121]
Reply: 0.034

Task item: State its IC50: Cc1ccc(NC(=O)OC2CCC2)cc1-c1cccnc1 [Example 129]
Reply: 30.9

Task item: State its IC50: Cc1cc(F)c(NC(=O)N2C3C[C@H](C)C[C@@H]2C3)cc1-c1cncc(F)c1 [Example 41]
Reply: 0.04

Task item: State its IC50: Cc1ccc(NC(=O)N2C3CC(=O)CC2C3)cc1-c1cncc(F)c1 [Example 38]
Reply: 2.3

* * *

Biological target: full-length SARM1 (FL-SARM1) (Homo sapiens, UniProt Q6SZW1)
Sequence (Q6SZW1 28-724): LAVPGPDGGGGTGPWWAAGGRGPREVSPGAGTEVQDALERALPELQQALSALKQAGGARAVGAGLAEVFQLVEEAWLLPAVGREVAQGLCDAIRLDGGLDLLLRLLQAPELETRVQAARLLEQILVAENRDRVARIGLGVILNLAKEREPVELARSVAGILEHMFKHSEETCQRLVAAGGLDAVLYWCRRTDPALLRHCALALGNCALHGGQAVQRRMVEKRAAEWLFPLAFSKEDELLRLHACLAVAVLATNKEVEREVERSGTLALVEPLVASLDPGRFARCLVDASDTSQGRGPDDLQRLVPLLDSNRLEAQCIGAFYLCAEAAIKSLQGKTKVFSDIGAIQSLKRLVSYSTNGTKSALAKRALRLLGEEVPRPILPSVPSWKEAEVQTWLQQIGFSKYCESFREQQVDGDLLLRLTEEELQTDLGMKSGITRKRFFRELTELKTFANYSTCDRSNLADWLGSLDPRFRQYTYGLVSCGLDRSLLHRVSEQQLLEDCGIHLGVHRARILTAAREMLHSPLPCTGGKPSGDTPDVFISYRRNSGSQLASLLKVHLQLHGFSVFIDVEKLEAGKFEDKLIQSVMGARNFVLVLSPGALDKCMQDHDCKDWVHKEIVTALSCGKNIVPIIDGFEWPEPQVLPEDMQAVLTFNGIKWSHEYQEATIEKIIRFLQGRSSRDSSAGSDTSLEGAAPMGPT
Assay: FL-SARM1 cellular lysate assay (NAD/NADH-Glo readout of remaining NAD+)
Settings: Activity (μM), SARM1 cellular lysate from transfected HEK293T cells, NAD+ and NMN, 11 point curve
Each entry falls into one class according to its IC50; the ranges are 0 = under 0.3 µM, 1 = from 0.3 µM up to 2 µM, 2 = 2 µM and over

Task item: # classify by IC50 band: Cc1ccc(NC(=O)C2CCCN2c2ncccn2)cc1-c1cncc(F)c1 (racemic)
Reply: 2

Task item: # classify by IC50 band: COc1ccc(-c2cc(NC(=O)N3C4CCCC3C4)ccc2C)cn1
Reply: 1

Task item: # classify by IC50 band: Cc1ccc(NC(=O)N2C3CCCC2C3)cc1-c1cncc(OC(F)(F)F)c1
Reply: 0

Task item: # classify by IC50 band: Cc1ccc(NC(=O)C2CCCN2C2CCC2)cc1-c1cncc(F)c1 (racemic)
Reply: 2

Task item: # classify by IC50 band: COc1ccncc1-c1cc(NC(=O)N2C3CCCC2C3)ccc1C
Reply: 1

Task item: # classify by IC50 band: Cc1ccc(NC(=O)N2C3CCCC2C3)cc1-c1cncc(OCF)c1
Reply: 0

Task item: # classify by IC50 band: COc1cncc(-c2cc(NC(=O)N3[C@@H]4C[C@@H](C)C[C@@]3(c3nnc(C)o3)C4)c(F)cc2C(F)(F)F)c1 (single isomer, unassigned) [Example 123]
Reply: 0

Task item: # classify by IC50 band: Cc1ccc(NC(=O)OC2CCC2)cc1-c1cncc(F)c1
Reply: 2

Task item: # classify by IC50 band: Cc1ccc(NC(=O)[C@H]2C[C@@H](C3CC3)C2)cc1-c1cncc(F)c1
Reply: 1

Task item: # classify by IC50 band: C[C@@H]1CC2C[C@@H](C1)N2C(=O)Nc1ccc(C#N)c(-c2cncc(F)c2)c1 (single isomer, unassigned)
Reply: 1

Task item: # classify by IC50 band: Cc1ccc(NC(=O)N2[C@@H]3C[C@H](C)C[C@H]2C3)cc1-c1cncc(F)c1
Reply: 0

Task item: # classify by IC50 band: CCO[C@@H]1C[C@@H]2C[C@H](C1)N2C(=O)Nc1ccc(C)c(-c2cncc(F)c2)c1
Reply: 2

Task item: # classify by IC50 band: Cc1ccc(NC(=O)N2C3CC2CC(C)(O)C3)cc1-c1cncc(F)c1 (single isomer, unassigned)
Reply: 2

Task item: # classify by IC50 band: Cc1ccc(NC(=O)N2C3CC2CC2(CC2)C3)cc1-c1cncc(F)c1
Reply: 0

Task item: # classify by IC50 band: CCc1ccc(NC(=O)N2[C@@H]3C[C@H](C)C[C@H]2C3)cc1-c1cncc(F)c1
Reply: 0

Task item: # classify by IC50 band: Cc1ccc(NC(=O)N2C[C@H]3C[C@@H]2CN3c2ncccn2)cc1-c1cncc(F)c1
Reply: 2

Task item: # classify by IC50 band: Cc1nnc([C@]23C[C@H](C)C[C@H](C2)N3C(=O)Nc2cc(-c3cncc(F)c3)c(Cl)cc2F)o1 (single isomer, unassigned) [Example 133]
Reply: 2

Task item: # classify by IC50 band: Cc1ccc(NC(=O)N2C3CCCC2C3)cc1-c1cnc(C)c(F)c1
Reply: 1

Task item: # classify by IC50 band: Cc1ccc(NC(=O)N2CC[C@@H](C)C[C@H]2C)cc1-c1cncc(F)c1 (racemic)
Reply: 1

Task item: # classify by IC50 band: Cc1ccc(NC(=O)N2C3CCC2CC3)cc1-c1cncc(F)c1
Reply: 1

Task item: # classify by IC50 band: Cc1ccc(NC(=O)CC2CCC2)cc1-c1cncnc1
Reply: 2

Task item: # classify by IC50 band: Cc1ccc(NC(=O)N2C3CCCC2C3)cc1-c1cncc(F)c1C
Reply: 1

Task item: # classify by IC50 band: Cc1ccc(NC(=O)N2C3CCC2COC3)cc1-c1cncc(F)c1
Reply: 2

Task item: # classify by IC50 band: C[C@@H]1CC2C[C@@H](C1)N2C(=O)Nc1ccc(Cl)c(-c2cncc(F)c2)c1 (single isomer, unassigned)
Reply: 0

Task item: # classify by IC50 band: Cc1ccc(NC(=O)N2C3CCCC2C3)cc1-c1cncc(S(C)(=O)=O)c1
Reply: 2

Task item: # classify by IC50 band: CCc1ccc(NC(=O)N2[C@@H]3C[C@@H](C)C[C@H]2C3)cc1-c1cncc(F)c1
Reply: 0

Task item: # classify by IC50 band: O=C(Nc1ccc(C(F)(F)F)c(-c2cncc(F)c2)c1)N1C2CCCC1C2
Reply: 1

Task item: # classify by IC50 band: Cc1nnc([C@]23C[C@H](C)C[C@H](C2)N3C(=O)Nc2cc(-c3cncc(F)c3)c(C)cc2F)o1 (single isomer, unassigned) [Example 125]
Reply: 0

Task item: # classify by IC50 band: Cc1ccc(NC(=O)N2C3C[C@H]2C[C@@]2(C3)CC2(F)F)cc1-c1cncc(F)c1
Reply: 0

The measurements presented in this section are drawn from patent US20250361234A1.
